// data source = patent EP0252525B1

Here, each record is paired with measured Hydrolysis product GP data.
measurement-target: HPA (Homo sapiens)
Sequence (P04746 16-511): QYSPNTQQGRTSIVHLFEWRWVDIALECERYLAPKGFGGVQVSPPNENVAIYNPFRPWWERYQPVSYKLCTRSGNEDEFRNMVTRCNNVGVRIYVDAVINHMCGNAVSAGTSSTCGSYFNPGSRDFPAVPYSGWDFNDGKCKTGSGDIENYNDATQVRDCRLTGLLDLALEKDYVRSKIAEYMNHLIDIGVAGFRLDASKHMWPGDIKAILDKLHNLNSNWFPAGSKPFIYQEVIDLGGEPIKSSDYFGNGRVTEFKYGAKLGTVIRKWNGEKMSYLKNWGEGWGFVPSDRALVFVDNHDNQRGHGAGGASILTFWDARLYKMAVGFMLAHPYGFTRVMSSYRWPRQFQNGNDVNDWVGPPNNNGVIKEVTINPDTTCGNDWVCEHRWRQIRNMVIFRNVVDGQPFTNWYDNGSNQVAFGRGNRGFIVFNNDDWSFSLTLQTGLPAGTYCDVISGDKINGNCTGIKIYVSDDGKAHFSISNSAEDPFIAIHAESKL
assay-info: Binding mode (distribution of hydrolysis products) by HPLC
Assay type: biochemical
run-conditions: share of product GP
Note: unit % is implicit; provide only the numeric part.

{"molecule": "O=[N+]([O-])c1ccc(O[C@H]2O[C@H](CO)[C@@H](O[C@H]3O[C@H](CO)[C@@H](O[C@H]4O[C@H](CO)[C@@H](O[C@H]5O[C@H](CO)[C@@H](O[C@H]6O[C@H](COCc7ccccc7)[C@@H](O)[C@H](O)[C@H]6O)[C@H](O)[C@H]5O)[C@H](O)[C@H]4O)[C@H](O)[C@H]3O)[C@H](O)[C@H]2O)cc1 [BG5P]", "Hydrolysis product GP / %": 5}

Q: Form field: reported Hydrolysis product GP of O=[N+]([O-])c1ccc(O[C@H]2O[C@H](CO)[C@@H](O[C@H]3O[C@H](CO)[C@@H](O[C@H]4O[C@H](CO)[C@@H](O[C@H]5O[C@H](COCc6ccccc6)[C@@H](O)[C@H](O)[C@H]5O)[C@H](O)[C@H]4O)[C@H](O)[C@H]3O)[C@H](O)[C@H]2O)cc1 [BG4P]
Ans: 92
